// provenance: paper PMC10641921

Test system: PI3Kα
test: PI3Kα enzyme selectivity (PI3Kα IC50 over mTOR IC50)
Format: biochemical
condition.description: ratio of PI3Kα enzyme IC50 over mTOR enzyme IC50
readout.kind: PI3Kα Sel (x)
Give the quantity in x, number only.

1) C[C@@]12COCCN1c1nc(-c3cnc4[nH]ccc4c3)ncc1N(CC1CC1)C2=O [3b] = 48
2) Cc1ccc(-c2ncc3c(n2)N2CCOC[C@@]2(C)C(=O)N3C2CCOCC2)c2cc[nH]c12 [4g] = 450
3) C[C@@]12COCCN1c1nc(-c3cnc4[nH]ccc4c3)ncc1N(C1CCOCC1)C2=O [4b] = 23
4) C[C@@]12COCCN1c1nc(-c3cnc4cc[nH]c4c3)ncc1N(CC1CC1)C2=O [3c] = 26

For C[C@@]12COCCN1c1nc(-c3cncc4[nH]ccc34)ncc1N(C1CCOCC1)C2=O [4f] , write its PI3Kα Sel.
84

For C[C@@]12COCCN1c1nc(-c3ccc(NC(=O)NC4CC4)cc3)ncc1N(CC1CC1)C2=O [3a] , write its PI3Kα Sel.
100

For C[C@@]12COCCN1c1nc(-c3cnc4cc[nH]c4c3)ncc1N(C1CCOCC1)C2=O [4c] , write its PI3Kα Sel.
13

For C[C@@]12COCCN1c1nc(-c3c[nH]c4ccccc34)ncc1N(C1CCOCC1)C2=O [4d] , write its PI3Kα Sel.
120

For Cc1ncc(-c2ncc3c(n2)N2CCOC[C@@]2(C)C(=O)N3C2CCOCC2)c2cc[nH]c12 [4h] , write its PI3Kα Sel.
270

For C[C@@]12COCCN1c1nc(-c3cccc4[nH]ccc34)ncc1N(C1CCOCC1)C2=O [4e] , write its PI3Kα Sel.
110

For Cc1cccc2c(-c3ncc4c(n3)N3CCOC[C@@]3(C)C(=O)N4C3CCOCC3)c[nH]c12 [4i] , write its PI3Kα Sel.
640

For CC(F)(F)CN1C(=O)[C@]2(C)COCCN2c2nc(-c3ccc(NC(=O)NC4CC4)cc3)ncc21 [compound 1] , write its PI3Kα Sel.
54

For C[C@@]12COCCN1c1nc(-c3ccc(NC(=O)NC4CC4)cc3)ncc1N(C1CCOCC1)C2=O [4a] , write its PI3Kα Sel.
63
